- MEASUREMENT TARGET: FPR1 (Homo sapiens)
- Sequence (P21462 1-350): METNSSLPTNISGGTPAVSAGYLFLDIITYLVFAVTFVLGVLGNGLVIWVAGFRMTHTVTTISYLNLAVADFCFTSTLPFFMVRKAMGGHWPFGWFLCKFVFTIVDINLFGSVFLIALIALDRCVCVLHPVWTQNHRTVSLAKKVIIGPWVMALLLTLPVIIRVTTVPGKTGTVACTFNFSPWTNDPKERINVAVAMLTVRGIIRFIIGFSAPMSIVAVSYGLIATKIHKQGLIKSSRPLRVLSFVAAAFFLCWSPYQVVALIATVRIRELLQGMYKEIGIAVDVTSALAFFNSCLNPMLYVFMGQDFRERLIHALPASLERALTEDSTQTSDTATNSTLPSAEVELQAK
- EXPERIMENTAL PROTOCOL: Change in calcium activity by peptide, FPR1 activation effect
- PARTICULARS: calcium activity (Fura-2), graded per Table 3, read-out: EC50 for [Ca^2+] FPR1
Peptide text beside a SMILES is read from it.
Recorded measurements of EC50, one per entry

{"columns": ["COMPOUND", "EC50"],
 "data": [
  ["CCCC(=O)N[C@@H](CCCNC(=N)N)C(=O)N[C@@H](CCSC)C(=O)N[C@@H](CCCNC(=N)N)C(=O)N[C@@H](Cc1ccc(O)cc1)C(=O)N[C@@H](Cc1c[nH]c2ccccc12)C(=O)N1CCC[C@H]1C(=O)N[C@H](CCSC)C(N)=O [Peptide 108] (HELM PEPTIDE1{[CCCC(=O)[*:2]].R.M.R.Y.W.P.[dM].[am]}$$$$V2.0)", "101 to 1000 nM"]
]}

Next item in the queue.
Q: Give its EC50 value. Item: CCCCCCCC(=O)N[C@@H](CCSC)C(=O)N[C@@H](CCCCN)C(=O)N[C@@H](Cc1ccc(O)cc1)C(=O)N[C@@H](Cc1c[nH]c2ccccc12)C(=O)N1CCC[C@H]1C(=O)N[C@H](CCSC)C(N)=O [Peptide 116] (HELM PEPTIDE1{[CCCCCCCC(=O)[*:2]].M.K.Y.W.P.[dM].[am]}$$$$V2.0)
Ans: 1000 to 10000 nM
